Conditions: roseburia intestinalis, 12 h, 2 µM
Description: The drug is tested on Roseburia intestinalis strain: L1-82 for biotransformation. The drug concentrations were measured before and after a 12-h incubation by liquid-chromatography-coupled mass spectrometry (LC–MS)
measurement-label: Bacterial Biotransformation

Observe how each entry below is paired with its result.
{"columns": ["compound", "Bacterial Biotransformation"],
 "data": [
  ["CN1CCN(CC/C=C2/c3ccccc3Sc3ccc(S(=O)(=O)N(C)C)cc32)CC1", "Compound metabolized"],
  ["CCOC(=O)[C@H](CCc1ccccc1)N[C@@H](C)C(=O)N1Cc2ccccc2C[C@H]1C(=O)O", "Compound NOT metabolized"],
  ["C#C[C@]1(O)CC[C@H]2[C@@H]3CCC4=Cc5oncc5C[C@]4(C)[C@H]3CC[C@@]21C", "Compound metabolized"],
  ["CC(C)c1nc(CN(C)C(=O)N[C@H](C(=O)N[C@@H](Cc2ccccc2)C[C@H](O)[C@H](Cc2ccccc2)NC(=O)OCc2cncs2)C(C)C)cs1", "Compound NOT metabolized"],
  ["C#C[C@]1(OC(C)=O)CC[C@H]2[C@@H]3CCC4=C[C@@H](OC(C)=O)CC[C@@H]4[C@H]3CC[C@@]21C [ETHYNODIOL DIACETATE]", "Compound NOT metabolized"]
]}

Report Bacterial Biotransformation for "CC[C@@]1(O)C(=O)OCc2c1cc1n(c2=O)Cc2cc3c(CN(C)C)c(O)ccc3nc2-1" please. Compound NOT metabolized

Another compound: COc1cc(C(=O)NCc2ccc(OCCN(C)C)cc2)cc(OC)c1OC [TRIMETHOBENZAMIDE] Compound NOT metabolized

Another compound: COc1ccc2[nH]c([S+]([O-])Cc3ncc(C)c(OC)c3C)nc2n1 (centres undefined) Compound metabolized

Another compound: "O=C1[C@H](CC[C@H](O)c2ccc(F)cc2)[C@@H](c2ccc(O)cc2)N1c1ccc(F)cc1" Compound NOT metabolized

Another compound: "Cc1cc2c(cc1S(N)(=O)=O)S(=O)(=O)CCC2" Compound NOT metabolized

Another compound: CNCCC(Oc1ccc(C(F)(F)F)cc1)c1ccccc1 (centres undefined) Compound metabolized

Another compound: "COc1cc2c(c(OC)c1OC)-c1ccc(OC)c(=O)cc1[C@@H](NC(C)=O)CC2" Compound metabolized

Another compound: CCCC(=O)Nc1ccc(OCC(O)CNC(C)C)c(C(C)=O)c1 (centres undefined) Compound NOT metabolized

###

Assay: The drug is tested on Coprococcus comes strain: ATCC27758 for biotransformation. The drug concentrations were measured before and after a 12-h incubation by liquid-chromatography-coupled mass spectrometry (LC–MS)
Type: ADME
Set-up: dose 2 uM, timepoint 0 vs 12 hours
Conditions: 2 µM
measurement-label: Bacterial Biotransformation

Observe how each entry below is paired with its result.
{"columns": ["compound", "Bacterial Biotransformation"],
 "data": [
  ["CC(C)(C)NC[C@H](O)COc1nsnc1N1CCOCC1.O=C(O)/C=C\\C(=O)O [TIMOLOL MALEATE]", "Compound NOT metabolized"],
  ["CNS(=O)(=O)Cc1ccc2[nH]cc(CCN(C)C)c2c1.O=C(O)CCC(=O)O [SUMATRIPTAN SUCCINATE]", "Compound NOT metabolized"],
  ["CC(C)c1nc(N(C)S(C)(=O)=O)nc(-c2ccc(F)cc2)c1/C=C/[C@@H](O)C[C@@H](O)CC(=O)[O-].CC(C)c1nc(N(C)S(C)(=O)=O)nc(-c2ccc(F)cc2)c1/C=C/[C@@H](O)C[C@@H](O)CC(=O)[O-].[Ca+2]", "Compound NOT metabolized"],
  ["CC(C)NCC(O)c1ccc(NS(C)(=O)=O)cc1 (stereo not drawn)", "Compound NOT metabolized"],
  ["CN(C/C=C/C#CC(C)(C)C)Cc1cccc2ccccc12", "Compound NOT metabolized"]
]}

Report Bacterial Biotransformation for "CCCCC1=NC2(CCCC2)C(=O)N1Cc1ccc(-c2ccccc2-c2nnn[nH]2)cc1" please. Compound metabolized

Another compound: "N[C@@H](Cc1ccc(N(CCCl)CCCl)cc1)C(=O)O" Compound metabolized

Another compound: "CCc1nn(CCCN2CCN(c3cccc(Cl)c3)CC2)c(=O)n1CCOc1ccccc1" Compound NOT metabolized

###

Experiment: The drug is tested on Ruminococcus lactaris strain: ATCC29176 for biotransformation. The drug concentrations were measured before and after a 12-h incubation by liquid-chromatography-coupled mass spectrometry (LC–MS)
Conditions: 2 µM

{"columns": ["compound", "Bacterial Biotransformation"],
 "data": [
  ["C[C@]12C=CC(=O)C=C1CC[C@@H]1[C@@H]2C(=O)C[C@@]2(C)[C@H]1CC[C@]2(O)C(=O)CO", "Compound NOT metabolized"],
  ["CCCCC(=O)O[C@]1(C(=O)CO)[C@@H](C)C[C@H]2[C@@H]3CCC4=CC(=O)C=C[C@]4(C)[C@@]3(F)[C@@H](O)C[C@@]21C [BETAMETHASONE VALERATE]", "Compound NOT metabolized"]
]}

###

Conditions: bacteroides thetaiotaomicron, 12 h, 2 µM
Description: The drug is tested on Bacteroides thetaiotaomicron strain: VPI-5482 for biotransformation. The drug concentrations were measured before and after a 12-h incubation by liquid-chromatography-coupled mass spectrometry (LC–MS)
measurement-label: Bacterial Biotransformation

{"columns": ["compound", "measurement"],
 "data": [
  ["CCCc1nn(C)c2c(=O)[nH]c(-c3cc(S(=O)(=O)N4CCN(C)CC4)ccc3OCC)nc12.O=C(O)CC(O)(CC(=O)O)C(=O)O [SILDENAFIL CITRATE]", "Compound NOT metabolized"],
  ["CCS(=O)(=O)CCn1c([N+](=O)[O-])cnc1C", "Compound metabolized"],
  ["COCCCC/C(=N\\OCCN)c1ccc(C(F)(F)F)cc1.O=C(O)/C=C\\C(=O)O [FLUVOXAMINE MALEATE]", "Compound metabolized"],
  ["O=C1N=C([O-])NC1(c1ccccc1)c1ccccc1.[Na+] [PHENYTOIN SODIUM]", "Compound NOT metabolized"],
  ["CCCCC(=O)O[C@]1(C(=O)CO)[C@@H](C)C[C@H]2[C@@H]3CCC4=CC(=O)C=C[C@]4(C)[C@@]3(F)[C@@H](O)C[C@@]21C [BETAMETHASONE VALERATE]", "Compound NOT metabolized"]
]}

Report Bacterial Biotransformation for "c1ccc2[nH]c(-c3cscn3)nc2c1" please. Compound NOT metabolized

Another compound: Cc1ccccc1N1C(=O)c2cc(S(N)(=O)=O)c(Cl)cc2NC1C (stereo not given) Compound NOT metabolized

Another compound: CCC(COC(=O)c1cc(OC)c(OC)c(OC)c1)(c1ccccc1)N(C)C.O=C(O)/C=C\C(=O)O (stereo not given) Compound metabolized

Another compound: Br.COc1ccc2c(c1)[C@]13CCCC[C@@H]1[C@H](C2)N(C)CC3.O [DEXTROMETHORPHAN HYDROBROMIDE] Compound NOT metabolized

Another compound: "O=C(CCCN1CCC2(CC1)C(=O)NCN2c1ccccc1)c1ccc(F)cc1" Compound NOT metabolized

Another compound: CC(C)(C)NC[C@H](O)COc1nsnc1N1CCOCC1.O=C(O)/C=C\C(=O)O [TIMOLOL MALEATE] Compound NOT metabolized

Another compound: COc1ccccc1OCC(O)COC(N)=O (stereo not given) Compound NOT metabolized

Another compound: Cc1ccc(S(=O)(=O)NC(=O)NN2CCCCCC2)cc1 [TOLAZAMIDE] Compound metabolized

Another compound: "COc1cc2nc(N3CCN(C(=O)c4ccco4)CC3)nc(N)c2cc1OC" Compound NOT metabolized

Another compound: "Cc1ccc(-c2cc(C(F)(F)F)nn2-c2ccc(S(N)(=O)=O)cc2)cc1" Compound NOT metabolized

Another compound: CCN(CC)CCNC(C(=O)OCCC(C)C)c1ccccc1.Cl.Cl (stereo not given) Compound NOT metabolized

###

Experiment: The drug is tested on Bacteroides xylanisolvens strain: DSM18836 for biotransformation. The drug concentrations were measured before and after a 12-h incubation by liquid-chromatography-coupled mass spectrometry (LC–MS)
Conditions: 2 µM
measurement-label: Bacterial Biotransformation

{"columns": ["molecule", "Bacterial Biotransformation"],
 "data": [
  ["CC(=O)CCCCn1c(=O)c2c(ncn2C)n(C)c1=O", "Compound NOT metabolized"],
  ["CC(=O)OCC(=O)[C@@]12N=C(C)O[C@@H]1C[C@H]1[C@@H]3CCC4=CC(=O)C=C[C@]4(C)[C@H]3[C@@H](O)C[C@@]12C", "Compound metabolized"],
  ["CN/C(=N/CCSCc1nc[nH]c1C)NC#N", "Compound NOT metabolized"],
  ["COc1ccccc1OCC(O)COC(N)=O (stereo unspecified)", "Compound NOT metabolized"],
  ["Cc1cc2c(cc1S(N)(=O)=O)S(=O)(=O)CCC2", "Compound NOT metabolized"],
  ["CC(=O)O[C@]1(C(C)=O)CC[C@H]2[C@@H]3C=C(Cl)C4=CC(=O)[C@@H]5C[C@@H]5[C@]4(C)[C@H]3CC[C@@]21C [CYPROTERONE ACETATE]", "Compound metabolized"],
  ["COc1ccc(Cc2nccc3cc(OC)c(OC)cc23)cc1OC", "Compound NOT metabolized"],
  ["Cc1nc2n(c(=O)c1CCN1CCC(c3noc4cc(F)ccc34)CC1)CCCC2", "Compound NOT metabolized"],
  ["Cc1cc2c(s1)Nc1ccccc1N=C2N1CCN(C)CC1", "Compound NOT metabolized"],
  ["CC(=O)O[C@H]1C(=O)[C@@]2(C)[C@H]([C@H](OC(=O)c3ccccc3)[C@]3(O)C[C@H](OC(=O)[C@H](O)[C@@H](NC(=O)c4ccccc4)c4ccccc4)C(C)=C1C3(C)C)[C@]1(OC(C)=O)CO[C@@H]1C[C@@H]2O", "Compound metabolized"]
]}

Report Bacterial Biotransformation for "CCc1nn(CCCN2CCN(c3cccc(Cl)c3)CC2)c(=O)n1CCOc1ccccc1" please. Compound NOT metabolized

Another molecule: CC(C)N(CCC(C(N)=O)(c1ccccc1)c1ccccn1)C(C)C.O=P(O)(O)O (stereo unspecified) [DISOPYRAMIDE PHOSPHATE] Compound NOT metabolized

Another molecule: COc1ccccc1OCCNCC(O)COc1cccc2[nH]c3ccccc3c12 (stereo unspecified) Compound metabolized

Another molecule: CCOc1ccc2nc(S(N)(=O)=O)sc2c1 [ETHOXZOLAMIDE] Compound metabolized

Another molecule: CC(C)NCC(O)COc1ccc(CC(N)=O)cc1 (stereo unspecified) Compound NOT metabolized

Another molecule: "C#C[C@]1(O)CC[C@H]2[C@@H]3CCC4=CC(=O)CC[C@@H]4[C@H]3CC[C@@]21CC" Compound metabolized
